Assay: Metabolic stability in liver microsomes
Type: in vitro ADME
Conditions: SD rat liver microsomes, compound 1 μM
# metabolic stability (halftime in minutes), Rat per record follows
Number only, in min; omit the unit.

compound_structure=CCc1nc2c(C)cc(N3CCN(CC(=O)N4CC(O)C4)CC3)cn2c1N(C)c1nc(-c2ccc(F)cc2)c(C#N)s1 assay_result=9.2

Continue with the compound presented below.
I would be grateful if you could share the reported metabolic stability (halftime in minutes), Rat for `CCc1nn2cc(F)c(N3CC4(CN(C(=O)[C@H]5CCOC5)C4)C3)cc2c1N(C)c1nc(-c2ccc(F)cc2)c(C#N)s1` .
67.3

src = patent US10711000B2
